For each of the sequences below, state its recombinant UMI read abundance (log10).
- RUN DESCRIPTION: recombinant UMI read abundance after kanamycin selection (control-corrected) (log10(CPM+1)); higher = more efficient recombination; extreme values may be limits of the assay; sequences stand for … in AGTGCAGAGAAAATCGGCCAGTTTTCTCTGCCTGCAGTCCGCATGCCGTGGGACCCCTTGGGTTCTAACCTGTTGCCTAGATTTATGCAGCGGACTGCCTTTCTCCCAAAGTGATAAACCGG…AGGTTGGTTTCACT; site = the 11-nt donor

Exercise: For the sequence shown here, ATGTAGGCATGGACCGGTTTTCCCGGTAATCCGTATTTGGC (site ATGTAGACTGC) , give the reported recombinant UMI read abundance (log10).
Key: 2.34

Exercise: Please report the recorded recombinant UMI read abundance (log10) for GAGCTCACATGGACCGGTTTTCCCGGTAATCCGTATTTGCT (site GAGCTCACTAA) .
Key: 1.28

Exercise: # query: recombinant UMI read abundance (log10) of entry AGACTAGCATGGACCGGTTTTCCCGGTAATCCGTATTTGTT (site AGTCTAGCTAA)
Key: 0.0145

Exercise: Request the reported recombinant UMI read abundance (log10) associated with GTAGTGTCATGGACCGGTTTTCCCGGTAATCCGTATTTGAC (site CTAGTATCTGT)
Key: 2.03

Exercise: Recorded recombinant UMI read abundance (log10) for TAGGAATCATGGACCGGTTTTCCCGGTAATCCGTATTTGCG (site TCGGAATCTCG) , please?
Key: 1.51

Exercise: For the sequence shown here, ACAGTATCATGGACCGGTTTTCCCGGTAATCCGTATTTGCC (site ACAGTATCTCG) , give the reported recombinant UMI read abundance (log10).
Key: 1.77

Exercise: Requested read-out: recombinant UMI read abundance (log10). Entry: GTATGTCCATGGACCGGTTTTCCCGGTAATCCGTATTTGAG (site GTATGTCCTCT)
Key: 0.428

Exercise: What measured recombinant UMI read abundance (log10) goes with CGCTCATCATGGACCGGTTTTCCCGGTAATCCGTATTTGCG (site CGCTCATCTCG) ?
Key: 0.716

Exercise: Entry CCGGAAACATGGACCGGTTTTCCCGGTAATCCGTATTTGTT (site CCGGAAACTAA) has what recombinant UMI read abundance (log10)?
Key: 1.15

Exercise: Record request: recombinant UMI read abundance (log10) value, item ACAGACTCATGGACCGGTTTTCCCGGTAATCCGTATTTGCA (site ACAGTATCTTG)
Key: 0

Exercise: Quick check: recombinant UMI read abundance (log10) of CAAGTGACATGGACCGGTTTTCCCGGTAATCCGTATTTGGG (site CAAGTAACTCC) ?
Key: 1.09

Exercise: May I ask what recombinant UMI read abundance (log10) has been recorded for CGGCATCCATGGACCGGTTTTCCCGGTAATCCGTATTTGTG (site CGGAATCCTAA) ?
Key: 0

Exercise: # lookup: recombinant UMI read abundance (log10) of CGCTCAACATGGACCGGTTTTCCCGGTAATCCGTATTTGCC (site CGCTCAACTGG)
Key: 0.429

Exercise: May I ask what recombinant UMI read abundance (log10) has been recorded for AGACGGTCATGGACCGGTTTTCCCGGTAATCCGTATTTGGC (site AGACGGTCTGC) ?
Key: 3.28

Exercise: Please give the measured recombinant UMI read abundance (log10) for this sequence: TAGTTGCCATGGACCGGTTTTCCCGGTAATCCGTATTTGCC (site TAGTTGCCTGG)
Key: 0

Exercise: Item GACAAATCATGGACCGGTTTTCCCGGTAATCCGTATTTGGT (site GACAAAGCTAC) has what recorded recombinant UMI read abundance (log10)?
Key: 0.224

Exercise: Quick check: recombinant UMI read abundance (log10) of AGATTATCATGGACCGGTTTTCCCGGTAATCCGTATTTGCT (site CGATCATCTAG) ?
Key: 0

Exercise: Reported recombinant UMI read abundance (log10) for ACTAGAACATGGACCGGTTTTCCCGGTAATCCGTATTTGAG (site CCTAGAACTCT) : what is it?
Key: 1.33

Exercise: For the sequence CCCAAATCATGGACCGGTTTTCCCGGTAATCCGTATTTGTC (site CCCAAATCTGA) , what recombinant UMI read abundance (log10) is on record?
Key: 1.93

Exercise: Consider the sequence shown here: CAATTCACATGGACCGGTTTTCCCGGTAATCCGTATTTGGG (site CAATTCACTCC) What is its recorded recombinant UMI read abundance (log10)?
Key: 0.0754

Exercise: Would you kindly share the measured recombinant UMI read abundance (log10) for TGTTCCCCATGGACCGGTTTTCCCGGTAATCCGTATTTGTA (site TGTTCCACTTA) ?
Key: 0.0238

Exercise: Entry under review: CATTTGGCATGGACCGGTTTTCCCGGTAATCCGTATTTGTG (site TATTTGGCTCA) . Reported recombinant UMI read abundance (log10)?
Key: 0.106

Exercise: Which recombinant UMI read abundance (log10) value belongs to ACACTTTCATGGACCGGTTTTCCCGGTAATCCGTATTTGCA (site ACACTTTCTTG) ?
Key: 2.82

Exercise: Please give the measured recombinant UMI read abundance (log10) for this sequence: GGAGTGTCATGGACCGGTTTTCCCGGTAATCCGTATTTGGT (site GGAGTGACTAC)
Key: 0.192

Exercise: // lookup recombinant UMI read abundance (log10) for TGCTAGGCATGGACCGGTTTTCCCGGTAATCCGTATTTGGT (site TGCTAGCCTAC)
Key: 0.0225

Exercise: Consider the sequence TTAGTCTCATGGACCGGTTTTCCCGGTAATCCGTATTTGAC (site TTAGTCTCTGT) and give its measured recombinant UMI read abundance (log10).
Key: 3.02

Exercise: Look up recombinant UMI read abundance (log10): ACTAGAACATGGACCGGTTTTCCCGGTAATCCGTATTTGCG (site ACTAGAACTCT)
Key: 0.412

Exercise: Fill in the blank: the reported recombinant UMI read abundance (log10) of ATGCATGCATGGACCGGTTTTCCCGGTAATCCGTATTTGGT (site CTGCATGCTAC) is ____.
Key: 0.628

Exercise: Requested read-out: recombinant UMI read abundance (log10). Entry: TGTACGCCATGGACCGGTTTTCCCGGTAATCCGTATTTGAC (site TGTACACCTGT)
Key: 0

Exercise: # get_value(readout='recombinant UMI read abundance (log10)', item= ACATCAACATGGACCGGTTTTCCCGGTAATCCGTATTTGTG (site ACATCCACTCA) )
Key: 0.0219

Exercise: Please give the measured recombinant UMI read abundance (log10) for this sequence: CGGAGGCCATGGACCGGTTTTCCCGGTAATCCGTATTTGTT (site CGGAGGCCTAA)
Key: 0

Exercise: Please report the recorded recombinant UMI read abundance (log10) for CAGGGGTCATGGACCGGTTTTCCCGGTAATCCGTATTTGTA (site CAGGGGTCTTA) .
Key: 3.37

Exercise: Dear colleague, I am looking for the recorded recombinant UMI read abundance (log10) of the following sequence: CTACCATCATGGACCGGTTTTCCCGGTAATCCGTATTTGCT (site CTACCATCTAG)
Key: 2.35

Exercise: Could you tell me which recombinant UMI read abundance (log10) is on file for CATCTTGCATGGACCGGTTTTCCCGGTAATCCGTATTTGGT (site CATCTTGCTAC) ?
Key: 0.825

Exercise: Given the entry ATCCTGACATGGACCGGTTTTCCCGGTAATCCGTATTTGAA (site ATCCTGACTTT) , report its measured recombinant UMI read abundance (log10).
Key: 0.419

Exercise: // lookup recombinant UMI read abundance (log10) for CAATCACCATGGACCGGTTTTCCCGGTAATCCGTATTTGCT (site CAATCACCTAG)
Key: 0.00562

* * *

- RUN DESCRIPTION: recombinant barcode read abundance after kanamycin selection (control-corrected) (log10(CPM+1)); higher = more efficient recombination; sequences stand for … in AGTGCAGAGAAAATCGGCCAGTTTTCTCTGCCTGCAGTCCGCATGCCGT…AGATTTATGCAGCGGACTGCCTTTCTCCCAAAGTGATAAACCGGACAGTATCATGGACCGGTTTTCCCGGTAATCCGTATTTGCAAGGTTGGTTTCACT; site = the 11-nt target
MEASUREMENT KIND: recombinant barcode read abundance (log10)
API doc: respond with a numeric literal and nothing else, no unit.

Exercise: Reported recombinant barcode read abundance (log10), sequence GTAAGCTCTTGGGTTCTAACCTGTTGCCT (site ATAAGCTCTAG) : ____
Key: 1.34

Exercise: Can you share its recombinant barcode read abundance (log10)? I mean this sequence: CTGGTTCCTTGGGTTCTAACCTGTTGCCT (site CTGGCTCCTAA)
Key: 0.874

Exercise: Dear colleague, I am looking for the recorded recombinant barcode read abundance (log10) of the following sequence: CTTGGATCTTGGGTTCTAACCTGTTGCCT (site CTTGGATCTAG)
Key: 0.913

Exercise: Dear colleague, I am looking for the recorded recombinant barcode read abundance (log10) of the following sequence: GCGACTCCTTGGGTTCTAACCTGTTGCAT (site GCGACTCCTAT)
Key: 0.857

Exercise: Entry ACTGGACCTTGGGTTCTAACCTGTTGCTT (site GCTGGACCTAG) has what recombinant barcode read abundance (log10)?
Key: 0.616

Exercise: recombinant barcode read abundance (log10) lookup needed for GACCGTCCTTGGGTTCTAACCTGTTGCCT (site GACCGTCCTAT) , thanks.
Key: 0.263

Exercise: recombinant barcode read abundance (log10) lookup needed for TCCGAAGCTTGGGTTCTAACCTGTTGCTA (site TCCAAAGCTTA) , thanks.
Key: 0.0181

Exercise: Sample TAGCATACTTGGGTTCTAACCTGTTGCCT (site TAGCATACTTG) — what was its recombinant barcode read abundance (log10)?
Key: 0.0681

Exercise: Which recombinant barcode read abundance (log10) value is on record for TTCAAGACTTGGGTTCTAACCTGTTGCCT (site TTCAAGGCTAG) ?
Key: 0

Exercise: Given TTGATTGCTTGGGTTCTAACCTGTTGCCT (site TTGATTGCTAG) , state its recorded recombinant barcode read abundance (log10).
Key: 0.497

Exercise: Could you share which recombinant barcode read abundance (log10) value was measured for AGCCGAACTTGGGTTCTAACCTGTTGCCT (site TGCCGAACTAG) ?
Key: 0.0692

Exercise: Which recombinant barcode read abundance (log10) reading was recorded for the sequence AACTGATCTTGGGTTCTAACCTGTTGCCT (site AACTAATCTAG) ?
Key: 0.0976

Exercise: If you can, please state the reported recombinant barcode read abundance (log10) value of AGATCTCCTTGGGTTCTAACCTGTTGCCT (site AGAGCTCCTCG) .
Key: 0.231

Exercise: What recombinant barcode read abundance (log10) value was documented for this sequence, CCTCGCACTTGGGTTCTAACCTGTTGCGA (site CCTGGCACTTC) ?
Key: 0.0155

Exercise: For the sequence shown here, GTCTACGCTTGGGTTCTAACCTGTTGCCA (site GTCTAAGCTCG) , give the reported recombinant barcode read abundance (log10).
Key: 0.0189

Exercise: Query (sequence): GGAAGACCTTGGGTTCTAACCTGTTGCTA (site GGAAGACCTTA) ; field requested: recombinant barcode read abundance (log10)
Key: 0.956

Exercise: Data request, read-out recombinant barcode read abundance (log10), for TTCGGAGCTTGGGTTCTAACCTGTTGCTG (site TTCGGAGCTCA)
Key: 1.56

Exercise: Dear colleague, I am looking for the recorded recombinant barcode read abundance (log10) of the following sequence: ATTACCTCTTGGGTTCTAACCTGTTGCCT (site AATACCTCTAG)
Key: 0.0245

Exercise: May I ask what recombinant barcode read abundance (log10) has been recorded for CTTCAATCTTGGGTTCTAACCTGTTGCCT (site CTTCAATCTAG) ?
Key: 0.267

Exercise: Please give the measured recombinant barcode read abundance (log10) for this sequence: ACGGGTTCTTGGGTTCTAACCTGTTGCCT (site TCCGGTTCTAG)
Key: 0.107

Exercise: For the sequence GGAGATTCTTGGGTTCTAACCTGTTGCCT (site GGAGATTCTAG) , what recombinant barcode read abundance (log10) is on record?
Key: 2.22
